# Assayed Target: T1, human Y2 receptor (human, UniProt P49146 1-381)
# T1 sequence (looked up): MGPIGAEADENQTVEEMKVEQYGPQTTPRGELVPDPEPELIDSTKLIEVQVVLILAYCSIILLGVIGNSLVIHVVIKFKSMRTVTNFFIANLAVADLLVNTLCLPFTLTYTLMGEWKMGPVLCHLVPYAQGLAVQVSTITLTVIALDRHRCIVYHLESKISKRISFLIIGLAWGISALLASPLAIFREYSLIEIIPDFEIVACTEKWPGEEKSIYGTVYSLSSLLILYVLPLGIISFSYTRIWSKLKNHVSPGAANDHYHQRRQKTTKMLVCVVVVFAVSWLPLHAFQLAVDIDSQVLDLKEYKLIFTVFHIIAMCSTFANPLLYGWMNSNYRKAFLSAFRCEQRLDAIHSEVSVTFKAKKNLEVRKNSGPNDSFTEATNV
# Run Description: cell-based or functional assay
Non-standard residues stand in square brackets, D forms with d. *: point of attachment. tBuAla = CC(C)(C)C[C@H](N)C(=O)O; Cha = N[C@@H](CC1CCCCC1)C(=O)O; Dap = NC[C@H](N)C(=O)O; Aib = CC(C)(N)C(=O)O; Bz = O=C(c1ccccc1)*
GBA EC50 Ratio (vs PYY(3-36)), [35S]GTPγS for assorted binders

A selection of reference data follows.
Binder	Result
Bz-RH[Dap]INWITRQR[Cha]-NH2 (SMILES CC[C@H](C)[C@H](NC(=O)[C@H](CN)NC(=O)[C@H](Cc1c[nH]cn1)NC(=O)[C@H](CCCNC(=N)N)NC(=O)c1ccccc1)C(=O)N[C@@H](CC(N)=O)C(=O)N[C@@H](Cc1c[nH]c2ccccc12)C(=O)N[C@H](C(=O)N[C@H](C(=O)N[C@@H](CCCNC(=N)N)C(=O)N[C@@H](CCC(N)=O)C(=O)N[C@@H](CCCNC(=N)N)C(=O)N[C@@H](CC1CCCCC1)C(N)=O)[C@@H](C)O)[C@@H](C)CC, also called compound No. 67) [Benzoyl-[Dap27, Ile28,31, Trp30, Cha36]-PYY(25-36)]	22 ratio
Ac-S[dP]RH[Cha][tBuAla]NK[Aib]TRQR[Cha]-NH2 (SMILES CC(=O)N[C@@H](CO)C(=O)N1CCC[C@@H]1C(=O)N[C@@H](CCCNC(=N)N)C(=O)N[C@@H](Cc1c[nH]cn1)C(=O)N[C@@H](CC1CCCCC1)C(=O)N[C@@H](CC(C)(C)C)C(=O)N[C@@H](CC(N)=O)C(=O)N[C@@H](CCCCN)C(=O)NC(C)(C)C(=O)N[C@H](C(=O)N[C@@H](CCCNC(=N)N)C(=O)N[C@@H](CCC(N)=O)C(=O)N[C@@H](CCCNC(=N)N)C(=O)N[C@@H](CC1CCCCC1)C(N)=O)[C@@H](C)O, also called compound No. 136) [Ac-[D-Pro24, Cha27,36, Leu(Me)28, Lys30, Aib31]-PYY(23-36)]	0.63 ratio
Ac-S[dP]RH[Cha][Cha]NL[Aib]TRQRF-NH2 (SMILES CC(=O)N[C@@H](CO)C(=O)N1CCC[C@@H]1C(=O)N[C@@H](CCCNC(=N)N)C(=O)N[C@@H](Cc1c[nH]cn1)C(=O)N[C@@H](CC1CCCCC1)C(=O)N[C@@H](CC1CCCCC1)C(=O)N[C@@H](CC(N)=O)C(=O)N[C@@H](CC(C)C)C(=O)NC(C)(C)C(=O)N[C@H](C(=O)N[C@@H](CCCNC(=N)N)C(=O)N[C@@H](CCC(N)=O)C(=O)N[C@@H](CCCNC(=N)N)C(=O)N[C@@H](Cc1ccccc1)C(N)=O)[C@@H](C)O, also called compound No. 143) [Ac-[D-Pro24, Cha27,28, Aib31, Phe36]-PYY(23-36)]	0.85 ratio
Ac-YYASLRAYINLITRQRY-NH2 (also called compound No. 5) [Ac-[Ala26, Ile28,31]-PYY(20-36)]	8.1 ratio

Turning now to a further record.
Reported GBA EC50 Ratio (vs PYY(3-36)), [35S]GTPγS for Ac-S[dP]RT[Cha][Cha]NL[Aib]TRQR[Cha]-NH2 (SMILES CC(=O)N[C@@H](CO)C(=O)N1CCC[C@@H]1C(=O)N[C@@H](CCCNC(=N)N)C(=O)N[C@H](C(=O)N[C@@H](CC1CCCCC1)C(=O)N[C@@H](CC1CCCCC1)C(=O)N[C@@H](CC(N)=O)C(=O)N[C@@H](CC(C)C)C(=O)NC(C)(C)C(=O)N[C@H](C(=O)N[C@@H](CCCNC(=N)N)C(=O)N[C@@H](CCC(N)=O)C(=O)N[C@@H](CCCNC(=N)N)C(=O)N[C@@H](CC1CCCCC1)C(N)=O)[C@@H](C)O)[C@@H](C)O, also called compound No. 147) [Ac-[D-Pro24, Thr26, Cha27,28,36, Aib31]-PYY(23-36)] : what is it?
2.1 ratio
